Reference for the values: ChEMBL document CHEMBL3507680

What cytotoxicity at 70.5 h was measured for each of the following?
# assay-notes: Human HepG2 cell viability assay in 384 well format
# Type: toxicity, cell-based
# Design: dose 125 nL, time 70.5 hour; concentration not given beside the values
# test-parameters: HepG2 cells, read-out: Inhibition
Could you write the number and then its unit?

Prompt line: Requested read-out: cytotoxicity at 70.5 h. Entry: O=C(CN1CCN(CC2CCOc3ccccc3C2)CC1)N1CCCC1 (stereo not given)
Response line: -13%

Prompt line: Requested read-out: cytotoxicity at 70.5 h. Entry: CCc1nc2n(n1)CCCC2NC(=O)Nc1cccc(F)c1F (stereo not given)
Response line: 4.24%

Prompt line: Requested read-out: cytotoxicity at 70.5 h. Entry: Cc1nc(NCCc2ccc(Cl)cc2)cc(C(=O)N2CCCCC2)n1
Response line: 13.8%

Prompt line: Requested read-out: cytotoxicity at 70.5 h. Entry: COCCC(=O)N1CCC(c2cc3ncc(C)nc3[nH]2)CC1
Response line: -14.7%

Prompt line: Requested read-out: cytotoxicity at 70.5 h. Entry: CCCNC(=O)CN1CCOC(c2ccc(Br)cc2)C1 (stereo not given)
Response line: -6.67%

Prompt line: Requested read-out: cytotoxicity at 70.5 h. Entry: CC(C)c1nnc2n1CCN(C(=O)CN1Cc3ccccc3C1=O)C2
Response line: 4.15%

Prompt line: Requested read-out: cytotoxicity at 70.5 h. Entry: CS(=O)(=O)N1CCC(N2CCCC2c2ccccn2)CC1 (stereo not given)
Response line: 2.33%

Prompt line: Requested read-out: cytotoxicity at 70.5 h. Entry: CC(=O)c1c(O)n(C)c2ccccc12
Response line: 25.3%

Prompt line: Requested read-out: cytotoxicity at 70.5 h. Entry: O=C(C1CCCN(Cc2cccc(F)c2)C1)N1CCc2sccc2C1 (stereo not given)
Response line: 0.518%

Prompt line: Requested read-out: cytotoxicity at 70.5 h. Entry: Cc1cc(C)cc(C(=O)NCCCC2(C3OCCO3)CCOCC2)c1
Response line: 1.06%

Prompt line: Requested read-out: cytotoxicity at 70.5 h. Entry: CCC(C)(CC(=O)O)NC(=O)Cc1ccccc1F (stereo not given)
Response line: 26.6%

Prompt line: Requested read-out: cytotoxicity at 70.5 h. Entry: O=C(c1ccc(N2CCCC2)nc1)N1CCCC(n2cncn2)C1 (stereo not given)
Response line: -9%

Prompt line: Requested read-out: cytotoxicity at 70.5 h. Entry: Cc1n[nH]c(C)c1-c1c(C#N)c(N)nc2c1CCc1[nH]ccc1-2
Response line: -3.53%

Prompt line: Requested read-out: cytotoxicity at 70.5 h. Entry: Cc1nccn1-c1cc(CNC(=O)c2ccnc(N(C)C)c2)ccn1
Response line: -10.5%

Prompt line: Requested read-out: cytotoxicity at 70.5 h. Entry: Cc1nccn1CCC1CCCCN1C(=O)c1ccc(N(C)C)cc1 (stereo not given)
Response line: -3.37%

Prompt line: Requested read-out: cytotoxicity at 70.5 h. Entry: CN(CC(C)(C)C)S(=O)(=O)c1ccc(C(F)(F)F)nc1
Response line: -25.1%

Prompt line: Requested read-out: cytotoxicity at 70.5 h. Entry: Cc1ncc(CNC(=O)CCc2ccccc2F)c(C2CCCN2C)n1 (stereo not given)
Response line: -0.236%

Prompt line: Requested read-out: cytotoxicity at 70.5 h. Entry: COc1ccc2nnc(CCCC(=O)NCc3cccn3C)n2n1
Response line: 6.5%

Prompt line: Requested read-out: cytotoxicity at 70.5 h. Entry: CS(=O)(=O)N1CCC2(CN(C(=O)c3cccnc3)C2)C1
Response line: -2.66%

Prompt line: Requested read-out: cytotoxicity at 70.5 h. Entry: N#Cc1cccnc1OC1CCN(C(=O)NCc2ccccc2)CC1
Response line: -4.78%

Prompt line: Requested read-out: cytotoxicity at 70.5 h. Entry: N#Cc1ccccc1CNC(C(=O)N1CCOCC1)c1ccccc1 (stereo not given)
Response line: -1.56%

Prompt line: Requested read-out: cytotoxicity at 70.5 h. Entry: CCS(=O)(=O)NCCNC(C)(C)c1nc(C)cs1
Response line: -2.97%

Prompt line: Requested read-out: cytotoxicity at 70.5 h. Entry: O=c1nc(SCc2ccc(Cl)cc2)c2c(n1CCO)CCC2
Response line: 20.9%

Prompt line: Requested read-out: cytotoxicity at 70.5 h. Entry: Cc1ccnn1-c1ccc(C(=O)N2CCN(c3cnccn3)CC2)cc1
Response line: -0.832%

Prompt line: Requested read-out: cytotoxicity at 70.5 h. Entry: CC(C)N(CC(N)=O)CC(=O)NCCc1c(F)cccc1F
Response line: -1.87%

Prompt line: Requested read-out: cytotoxicity at 70.5 h. Entry: CS(=O)(=O)Nc1ccn(Cc2cccc(Cl)c2)n1
Response line: -4.43%

Prompt line: Requested read-out: cytotoxicity at 70.5 h. Entry: CN(C)[C@@H]1CO[C@H](CNC(=O)C2CCCC2)[C@H]1O
Response line: 6.3%

Prompt line: Requested read-out: cytotoxicity at 70.5 h. Entry: CSc1ncn(-c2nc(NC3CC3)nc(N(C)C)n2)n1
Response line: -25.9%

Prompt line: Requested read-out: cytotoxicity at 70.5 h. Entry: CC(OCC1CC1)C(=O)NCc1cccc(CN2CCCC2=O)c1 (stereo not given)
Response line: 1.05%

Prompt line: Requested read-out: cytotoxicity at 70.5 h. Entry: Cc1nnc(CCNC(=O)Nc2ccc(S(C)(=O)=O)cc2)[nH]1
Response line: 35.6%

Prompt line: Requested read-out: cytotoxicity at 70.5 h. Entry: CC1(C)CNC(=O)c2nc(CCN3CCC(C(N)=O)CC3)[nH]c2C1
Response line: -11.8%

Prompt line: Requested read-out: cytotoxicity at 70.5 h. Entry: O=C(N1CCOCC1)[C@@]12CCO[C@@H]1CCN(C1CCC1)C2
Response line: 46%

Prompt line: Requested read-out: cytotoxicity at 70.5 h. Entry: O=C(O)c1ccc(Cc2cccc(F)c2)nc1
Response line: -3.84%

Prompt line: Requested read-out: cytotoxicity at 70.5 h. Entry: CC(=O)N1CCC(c2ncc(C(=O)Nc3ccc(F)cc3)c(C)n2)CC1
Response line: 12.6%

Prompt line: Requested read-out: cytotoxicity at 70.5 h. Entry: CN(C)C(=O)NCc1cc(=O)n2c(n1)CN(Cc1ccoc1)CCC2
Response line: 16.4%

Prompt line: Requested read-out: cytotoxicity at 70.5 h. Entry: NC1CCCCN(Cc2ccccc2CS(=O)(=O)c2ccccc2)C1 (stereo not given)
Response line: -8.29%

Prompt line: Requested read-out: cytotoxicity at 70.5 h. Entry: CC(C)(C)N1CC(C(=O)N2CCN(CCn3cccc3)CC2)CC1=O (stereo not given)
Response line: -2.66%

Prompt line: Requested read-out: cytotoxicity at 70.5 h. Entry: N#Cc1c(Cl)nsc1NCCN1CCOCC1
Response line: -10.1%

Prompt line: Requested read-out: cytotoxicity at 70.5 h. Entry: Cc1ccc(C(CNC(=O)c2cc(=O)c3ccccc3[nH]2)N(C)C)cc1 (stereo not given)
Response line: -4.48%

Prompt line: Requested read-out: cytotoxicity at 70.5 h. Entry: CS(=O)(=O)N1CCCCCC1C1CCN(c2ncccn2)CC1 (stereo not given)
Response line: 15.3%

Prompt line: Requested read-out: cytotoxicity at 70.5 h. Entry: O=C1CN(C(=O)C2CCCCC2)CC(O)CN1Cc1ccc(Cl)cc1 (stereo not given)
Response line: -5.09%

Prompt line: Requested read-out: cytotoxicity at 70.5 h. Entry: Cc1nc(S(=O)(=O)N2CCc3[nH]nc(CCC(C)C)c3C2)cn1C
Response line: -6.22%

Prompt line: Requested read-out: cytotoxicity at 70.5 h. Entry: Cc1ccc(N2CCC3(CN(Cc4cccs4)CCC3(F)F)C2)nn1 (stereo not given)
Response line: -7.32%

Prompt line: Requested read-out: cytotoxicity at 70.5 h. Entry: O=C(c1[nH]nc2c1CCCC2)N1CCC(OCCN2CCCCC2)C1 (stereo not given)
Response line: -2.83%

Prompt line: Requested read-out: cytotoxicity at 70.5 h. Entry: CN1CCN(C(=O)c2cc(C#N)cs2)c2ccccc2C1
Response line: -0.662%

====

What cytotoxicity at 70.5 h was measured for each of the following?
# assay-notes: Human HepG2 cell viability assay in 384 well format
# Type: toxicity, cell-based
# Design: dose 125 nL, time 70.5 hour; concentration not given beside the values
# test-parameters: HepG2 cells, read-out: Inhibition
Respond with the bare value in %.

Prompt line: Requested read-out: cytotoxicity at 70.5 h. Entry: CC(C)(NCC(=O)NCC(F)(F)F)c1ccc2c(c1)OCCO2
Response line: -16.8

Prompt line: Requested read-out: cytotoxicity at 70.5 h. Entry: Cc1ccc(C(=O)N[C@H]2CN(CCO)C[C@@H]2C2CC2)cc1Cl
Response line: 1.11

Prompt line: Requested read-out: cytotoxicity at 70.5 h. Entry: Cc1c[nH]nc1C1CCN(C(=O)C2CCOCC2)C1 (centres undefined)
Response line: 12.3

Prompt line: Requested read-out: cytotoxicity at 70.5 h. Entry: Cc1cc(CN2CCCC(NS(C)(=O)=O)C2)ccc1-n1cncn1 (centres undefined)
Response line: 11.7

Prompt line: Requested read-out: cytotoxicity at 70.5 h. Entry: CCNC(=O)c1cc2n(n1)CCCO2
Response line: -12.7

Prompt line: Requested read-out: cytotoxicity at 70.5 h. Entry: COc1ccnc(N2CCN(C(=O)Cc3csc(C)n3)CC2)n1
Response line: 1.2

Prompt line: Requested read-out: cytotoxicity at 70.5 h. Entry: Cc1cn2c(n1)CCC(NS(=O)(=O)c1cc(C)sc1C)C2 (centres undefined)
Response line: -3.85

Prompt line: Requested read-out: cytotoxicity at 70.5 h. Entry: CS(=O)(=O)CCC(=O)Nc1cc(F)ccc1OCC1CCCO1 (centres undefined)
Response line: 12.1

Prompt line: Requested read-out: cytotoxicity at 70.5 h. Entry: c1csc(C2(NCc3csc(C4CC4)n3)CCCC2)n1
Response line: -7.26
